The entries below are paired with their reported inhibition.
# Test system: Tyrosine-protein kinase ABL1 (Homo sapiens), P00519 [T315I]
# runConditions: at 1 µM
Express the result in % but write the number alone.

Reference set (3 entries):
Cc1cc(O)cc(C)c1/C=C/c1cncc(C(N)=O)c1 = 7.26
Cc1cc(O)cc(C)c1/C=C/c1cncc(C(=O)OC(C)(C)C)c1 = 4.07
CC(C)c1ccc(-c2cc(-c3c[nH]nc3-c3ccccn3)ccn2)cc1 = 0.44

Prompt: Entry `Cc1c2ccc(N(C)c3ccnc(Nc4cccc(S(N)(=O)=O)c4)n3)cc2nn1C` : reported inhibition = ?
Response: 52.2

Prompt: Which inhibition reading was recorded for the compound `COc1cc(N2CCN(C(C)C)CC2)ccc1Nc1nc(Nc2cccc3ncccc23)c2cc[nH]c2n1` ?
Response: 0.12

Prompt: Fill in: inhibition of `COC(=O)Nc1nc2cc(Oc3ccc(NC(=O)Nc4ccccc4)cc3)ccc2[nH]1` is ___
Response: 31.3

Prompt: For `CCOc1ccc2c(-c3ccnc(Nc4cc(OC)cc(C(F)(F)F)c4)n3)cnn2n1` , what is its reported inhibition?
Response: 3.15

Prompt: Given `O=C(O[C@H]1CN[C@H](C#Cc2cc3ncnc(Nc4ccc(OCc5cccc(F)c5)c(Cl)c4)c3s2)C1)N1CCOCC1` , state its recorded inhibition.
Response: 6.54

###

Below: a set of entries, each annotated with reported inhibition.
# targetDesc: G protein-coupled receptor kinase 6 (Homo sapiens) (UniProt P43250);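 also: values are averaged percent inhibition of GRK6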
# Sequence (P43250 whole entry, looked up): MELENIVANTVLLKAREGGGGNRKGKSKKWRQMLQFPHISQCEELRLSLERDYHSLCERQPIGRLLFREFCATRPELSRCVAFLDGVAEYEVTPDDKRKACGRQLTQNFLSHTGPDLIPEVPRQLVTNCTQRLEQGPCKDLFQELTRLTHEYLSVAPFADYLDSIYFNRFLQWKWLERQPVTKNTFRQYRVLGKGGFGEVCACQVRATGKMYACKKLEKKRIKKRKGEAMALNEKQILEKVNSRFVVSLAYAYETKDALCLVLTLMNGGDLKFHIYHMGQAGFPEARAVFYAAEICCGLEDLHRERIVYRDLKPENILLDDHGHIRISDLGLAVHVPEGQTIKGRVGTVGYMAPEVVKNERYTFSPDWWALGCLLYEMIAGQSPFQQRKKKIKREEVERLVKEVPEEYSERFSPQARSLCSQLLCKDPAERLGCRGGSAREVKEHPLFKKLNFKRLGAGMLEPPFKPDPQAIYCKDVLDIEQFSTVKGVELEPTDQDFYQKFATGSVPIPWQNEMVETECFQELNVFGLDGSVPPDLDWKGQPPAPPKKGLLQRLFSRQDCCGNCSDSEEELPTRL
# runConditions: at 1 µM
API: value field is a number in %; no unit string.

These recorded examples may help you get a feel for the data.
CN1CCC(n2cnc(-c3ccc(F)cc3)c2-c2ccnc(NCCO)n2)CC1 = 6.12
COc1cccc(Nc2nccc(-c3cnn4ncccc34)n2)c1 = 0.06
CCS(=O)(=O)c1ccc(OC)c(Nc2ncc(-c3cccc(F)c3)o2)c1 = 2.93
Cc1nnc(-c2cccc(-c3ccc(C(=O)NCC4CC4)cc3)c2)o1 = 10.4
CC1=C(C(=O)Nc2ccc3[nH]nc(C)c3c2)C(c2ccc(C(F)(F)F)cc2)CC(=O)N1 (stereo unspecified) = 14.7

Moving on to the next compound.
Prompt: I would be grateful if you could share the reported inhibition for `NC(=O)c1ccc2c(-c3ccnc(NCCCO)n3)c(-c3ccc(F)cc3)nn2c1` .
Response: 2.38

###

# Tested on: Platelet-derived growth factor receptor alpha (Homo sapiens), P16234 [T674I]
# Sequence (P16234 whole entry T674I): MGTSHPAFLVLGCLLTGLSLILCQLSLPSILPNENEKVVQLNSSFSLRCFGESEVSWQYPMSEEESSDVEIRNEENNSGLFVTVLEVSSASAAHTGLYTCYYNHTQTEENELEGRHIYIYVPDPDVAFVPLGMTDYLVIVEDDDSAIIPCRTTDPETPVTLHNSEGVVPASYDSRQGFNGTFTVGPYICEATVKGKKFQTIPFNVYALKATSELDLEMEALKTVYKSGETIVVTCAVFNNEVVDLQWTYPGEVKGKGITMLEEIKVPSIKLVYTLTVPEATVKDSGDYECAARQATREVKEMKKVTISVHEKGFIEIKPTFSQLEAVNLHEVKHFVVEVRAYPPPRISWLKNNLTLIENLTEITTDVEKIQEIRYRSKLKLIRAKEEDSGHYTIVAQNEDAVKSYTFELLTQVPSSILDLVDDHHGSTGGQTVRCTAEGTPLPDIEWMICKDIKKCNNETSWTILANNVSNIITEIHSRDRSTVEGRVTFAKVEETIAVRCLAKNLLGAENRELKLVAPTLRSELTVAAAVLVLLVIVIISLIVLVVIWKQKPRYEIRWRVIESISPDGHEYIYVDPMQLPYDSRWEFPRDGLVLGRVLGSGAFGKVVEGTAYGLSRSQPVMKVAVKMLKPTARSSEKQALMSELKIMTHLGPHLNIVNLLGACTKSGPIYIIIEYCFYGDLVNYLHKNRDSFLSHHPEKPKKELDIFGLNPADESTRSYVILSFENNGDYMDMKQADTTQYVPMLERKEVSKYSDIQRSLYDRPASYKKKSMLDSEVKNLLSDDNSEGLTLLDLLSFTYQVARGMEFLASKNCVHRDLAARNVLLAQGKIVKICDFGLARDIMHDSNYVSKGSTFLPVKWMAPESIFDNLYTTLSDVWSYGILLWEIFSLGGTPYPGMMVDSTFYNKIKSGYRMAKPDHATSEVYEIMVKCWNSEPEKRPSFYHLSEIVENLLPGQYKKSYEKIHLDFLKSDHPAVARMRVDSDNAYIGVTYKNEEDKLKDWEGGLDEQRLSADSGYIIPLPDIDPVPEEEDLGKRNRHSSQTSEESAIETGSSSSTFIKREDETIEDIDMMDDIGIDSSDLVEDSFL
# runConditions: at 1 µM
# key: entry, value: inhibition
The response must be a number in % with no trailing unit.

CNC(=O)c1cncc(/C=C/c2ccccc2C)c1 = 5.69
O=C(Nc1n[nH]c2nnc(-c3cccnc3)cc12)C1CC1 = 6.43

Prompt: Any idea what its inhibition is? The molecule is `CCn1c(-c2nonc2N)nc2cncc(C(=O)NCCNC)c21`
Response: 11.4

###

# targetDesc: cAMP-dependent protein kinase catalytic subunit PRKX (Homo sapiens) (UniProt P51817);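 also: values are mean percent inhibition of PRKX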
# Sequence (P51817 whole entry): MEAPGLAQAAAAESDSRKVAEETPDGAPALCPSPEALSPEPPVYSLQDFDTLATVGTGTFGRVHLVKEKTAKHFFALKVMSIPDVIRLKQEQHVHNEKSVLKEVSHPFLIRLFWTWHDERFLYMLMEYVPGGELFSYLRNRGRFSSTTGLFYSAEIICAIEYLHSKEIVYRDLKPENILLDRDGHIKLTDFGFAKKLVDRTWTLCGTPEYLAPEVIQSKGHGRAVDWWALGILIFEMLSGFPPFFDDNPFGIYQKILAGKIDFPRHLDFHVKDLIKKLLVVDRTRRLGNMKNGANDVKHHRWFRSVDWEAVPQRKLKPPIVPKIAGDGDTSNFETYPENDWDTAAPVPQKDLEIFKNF
# runConditions: at 0.1 µM
Measured inhibition of individual entries
The reply must contain the numeric value and, after it, the unit.

Worked examples follow.
COc1ccc2ncn(-c3cc(O[C@H](C)c4ccccc4C(F)(F)F)c(C(N)=O)s3)c2c1 = -0.2%
Cn1c(-c2nonc2N)nc2cnccc21 = 2.45%
NS(=O)(=O)c1ccc(N/N=C2\C(=O)Nc3ccc(C(=O)NCc4ccncc4)cc32)cc1 = 6.16%
Cc1nnc(-c2cccc(-c3ccc(C(=O)NCC4CC4)cc3)c2)o1 = 3.54%
CNC(=O)c1sc(-n2cnc3cc(OC)c(OC)cc32)cc1OCc1ccccc1C(F)(F)F = 2.66%

Note: attention shifts to another entry.
Prompt: Dear colleague, I am looking for the recorded inhibition of the following molecule: `COC(=O)Nc1nc2cc(Oc3ccc(NC(=O)Nc4ccccc4)cc3)ccc2[nH]1`
Response: 2.09%

# credit: ChEMBL document CHEMBL1961873
